# Test system: T1, RSV F glycoprotein (NUF4) (respiratory syncytial virus)
# T1 chain 1: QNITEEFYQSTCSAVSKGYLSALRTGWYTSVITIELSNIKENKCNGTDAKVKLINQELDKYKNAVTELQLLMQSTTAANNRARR
# T1 chain 2: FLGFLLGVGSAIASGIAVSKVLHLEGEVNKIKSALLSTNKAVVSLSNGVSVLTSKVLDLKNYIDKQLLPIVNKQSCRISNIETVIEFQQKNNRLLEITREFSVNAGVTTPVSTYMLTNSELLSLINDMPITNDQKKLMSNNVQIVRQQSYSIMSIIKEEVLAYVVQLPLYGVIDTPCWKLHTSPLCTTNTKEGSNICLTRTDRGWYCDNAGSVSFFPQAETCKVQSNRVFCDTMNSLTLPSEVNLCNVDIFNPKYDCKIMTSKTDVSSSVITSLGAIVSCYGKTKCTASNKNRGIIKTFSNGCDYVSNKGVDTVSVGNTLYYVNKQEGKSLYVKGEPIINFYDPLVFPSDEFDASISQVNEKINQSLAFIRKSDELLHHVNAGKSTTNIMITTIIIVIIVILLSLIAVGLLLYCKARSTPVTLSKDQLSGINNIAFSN
# Test: BIAcore, mAb vs NUF4 (1:1)
Measure name: number in parentheses after KD (fold against SYNAGIS = 1) (fold)
Quick reminder: number only, in fold, skip the unit.

Per the record, A8c7 (monoclonal antibody) (antibody, V domains shown, mAb with framework and constant regions of SYNAGIS) VH: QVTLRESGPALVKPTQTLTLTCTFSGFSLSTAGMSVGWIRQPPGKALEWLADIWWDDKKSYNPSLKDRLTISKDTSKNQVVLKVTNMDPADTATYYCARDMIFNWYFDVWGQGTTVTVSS VL: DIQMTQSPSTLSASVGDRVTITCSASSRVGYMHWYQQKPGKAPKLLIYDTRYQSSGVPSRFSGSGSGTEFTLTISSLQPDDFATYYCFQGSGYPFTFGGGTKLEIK has number in parentheses after KD (fold against SYNAGIS = 1) of 13

Per the record, A17d4 (monoclonal antibody) (antibody, V domains shown, mAb with framework and constant regions of SYNAGIS) VH: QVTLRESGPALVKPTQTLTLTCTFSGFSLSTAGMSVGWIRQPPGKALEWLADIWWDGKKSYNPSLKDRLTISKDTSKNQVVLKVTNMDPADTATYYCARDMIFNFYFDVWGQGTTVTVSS VL: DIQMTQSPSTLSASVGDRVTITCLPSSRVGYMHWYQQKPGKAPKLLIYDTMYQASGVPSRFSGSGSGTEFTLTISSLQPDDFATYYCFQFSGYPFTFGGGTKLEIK has number in parentheses after KD (fold against SYNAGIS = 1) of 12

Per the record, P12f4 (monoclonal antibody) (antibody, V domains shown, mAb with framework and constant regions of SYNAGIS) VH: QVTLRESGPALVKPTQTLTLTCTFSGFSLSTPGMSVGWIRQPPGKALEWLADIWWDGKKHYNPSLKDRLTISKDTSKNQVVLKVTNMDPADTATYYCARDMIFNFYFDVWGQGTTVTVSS VL: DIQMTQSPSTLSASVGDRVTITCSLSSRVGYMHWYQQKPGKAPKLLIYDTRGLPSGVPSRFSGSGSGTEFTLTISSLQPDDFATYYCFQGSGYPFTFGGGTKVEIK has number in parentheses after KD (fold against SYNAGIS = 1) of 36

Per the record, A1e9 (monoclonal antibody) (antibody, V domains shown, mAb with framework and constant regions of SYNAGIS; also called Ale9) VH: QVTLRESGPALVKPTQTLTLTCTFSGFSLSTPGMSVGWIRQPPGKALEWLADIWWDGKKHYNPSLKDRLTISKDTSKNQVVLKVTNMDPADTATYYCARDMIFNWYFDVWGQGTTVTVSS VL: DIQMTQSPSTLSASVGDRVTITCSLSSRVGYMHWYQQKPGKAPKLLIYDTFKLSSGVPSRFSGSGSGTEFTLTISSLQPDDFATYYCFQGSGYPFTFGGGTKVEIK has number in parentheses after KD (fold against SYNAGIS = 1) of 13
